Where do the numbers come from? From ChEMBL document CHEMBL1133206.

System: Pichia kudriavzevii
Assay: In vitro antifungal activity against Candida krusei (CK 28838)
Format: functional
measured_quantity: MIC (µg/mL)
Answers are plain numbers, in µg/mL.

These recorded examples may help you get a feel for the data.
Could you share which MIC value was measured for CCCOC(=O)N(O)[C@@H]1C[C@@H]2CC[C@@H](C)[C@@](O)(O2)C(=O)C(=O)N2CCCC[C@H]2C(=O)O[C@H]([C@H](C)C[C@@H]2CC[C@@H](O)[C@H](OC)C2)CC(=O)[C@H](C)/C=C(\C)[C@@H](O)[C@@H](OC)C(=O)[C@H](C)C[C@H](C)/C=C/C=C/C=C/1C ?
0.78

Which value of MIC has been reported for CO[C@@H]1C[C@H](C[C@@H](C)[C@@H]2CC(=O)[C@H](C)/C=C(\C)[C@@H](O)[C@@H](OC)C(=O)[C@H](C)C[C@H](C)/C=C/C=C/C=C(\C)[C@H](N(O)C(N)=O)C[C@@H]3CC[C@@H](C)[C@@](O)(O3)C(=O)C(=O)N3CCCC[C@H]3C(=O)O2)CC[C@H]1O in the records?
3.12

Field: next molecule
What MIC value was documented for this molecule, CO[C@@H]1C[C@H](C[C@@H](C)[C@@H]2CC(=O)[C@H](C)/C=C(\C)[C@@H](O)[C@@H](OC)C(=O)[C@H](C)C[C@H](C)/C=C/C=C/C=C(\C)[C@@H](N(O)C(=O)N3CCOCC3)C[C@@H]3CC[C@@H](C)[C@@](O)(O3)C(=O)C(=O)N3CCCC[C@H]3C(=O)O2)CC[C@H]1O ?
6.25

----------
System: Candida albicans
Assay: In vitro antifungal activity against […] (CA 34140); Not affected.
Assay type: functional
measured_quantity: MIC

# example entries with known answers
# query: MIC of entry CO[C@@H]1C[C@H](C[C@@H](C)[C@@H]2CC(=O)[C@H](C)/C=C(\C)[C@@H](O)[C@@H](OC)C(=O)[C@H](C)C[C@H](C)/C=C/C=C/C=C(\C)[C@@H](N(O)C(=O)N(C)C)C[C@@H]3CC[C@@H](C)[C@@](O)(O3)C(=O)C(=O)N3CCCC[C@H]3C(=O)O2)CC[C@H]1O
~100 µg/mL

MIC for CO[C@@H]1C[C@H](C[C@@H](C)[C@@H]2CC(=O)[C@H](C)/C=C(\C)[C@@H](O)[C@@H](OC)C(=O)[C@H](C)C[C@H](C)/C=C/C=C/C=C(\C)[C@H](N(O)C(=O)N3CCCCC3)C[C@@H]3CC[C@@H](C)[C@@](O)(O3)C(=O)C(=O)N3CCCC[C@H]3C(=O)O2)CC[C@H]1O ?
~100 µg/mL

As a next step, examine the molecule that follows.
Please give the measured MIC for this molecule: CO[C@@H]1C[C@H](C[C@@H](C)[C@@H]2CC(=O)[C@H](C)/C=C(\C)[C@@H](O)[C@@H](OC)C(=O)[C@H](C)C[C@H](C)/C=C/C=C/C=C(\C)[C@@H](N(O)C(=O)OC(C)C)C[C@@H]3CC[C@@H](C)[C@@](O)(O3)C(=O)C(=O)N3CCCC[C@H]3C(=O)O2)CC[C@H]1O
~100 µg/mL

----------
Tested on: Pichia kudriavzevii
Experiment: In vitro antifungal activity against Candida krusei (CK 28838)
Assay type: functional
measured_quantity: MIC (µg/mL)
Numbers only, in µg/mL.

Need MIC of CO[C@H]1C[C@@H]2CC[C@@H](C)[C@@](O)(O2)C(=O)C(=O)N2CCCC[C@H]2C(=O)O[C@H]([C@H](C)C[C@@H]2CC[C@@H](O)[C@H](OC)C2)CC(=O)[C@H](C)/C=C(\C)[C@@H](O)[C@@H](OC)C(=O)[C@H](C)C[C@H](C)/C=C/C=C/C=C/1C [SIROLIMUS] , thanks.
0.78

Could you share which MIC value was measured for CO[C@@H]1C[C@H](C[C@@H](C)[C@@H]2CC(=O)[C@H](C)/C=C(\C)[C@@H](O)[C@@H](OC)C(=O)[C@H](C)C[C@H](C)/C=C/C=C/C=C(\C)[C@@H](N(O)C(=O)OC(C)C)C[C@@H]3CC[C@@H](C)[C@@](O)(O3)C(=O)C(=O)N3CCCC[C@H]3C(=O)O2)CC[C@H]1O ?
0.78

Need MIC, item CO[C@@H]1C[C@H](C[C@@H](C)[C@@H]2CC(=O)[C@H](C)/C=C(\C)[C@@H](O)[C@@H](OC)C(=O)[C@H](C)C[C@H](C)/C=C/C=C/C=C(\C)[C@H](N(O)C(C)=O)C[C@@H]3CC[C@@H](C)[C@@](O)(O3)C(=O)C(=O)N3CCCC[C@H]3C(=O)O2)CC[C@H]1O
3.12

Look up MIC for this compound: CO[C@@H]1C[C@H](C[C@@H](C)[C@@H]2CC(=O)[C@H](C)/C=C(\C)[C@@H](O)[C@@H](OC)C(=O)[C@H](C)C[C@H](C)/C=C/C=C/C=C(\C)[C@H](c3ccc(C)s3)C[C@@H]3CC[C@@H](C)[C@@](O)(O3)C(=O)C(=O)N3CCCC[C@H]3C(=O)O2)CC[C@H]1O
1.56

Tell me the measured MIC of CO[C@@H]1C[C@H](C[C@@H](C)[C@@H]2CC(=O)[C@H](C)/C=C(\C)[C@@H](O)[C@@H](OC)C(=O)[C@H](C)C[C@H](C)/C=C/C=C/C=C(\C)[C@@H](N(O)C(=O)Oc3ccccc3)C[C@@H]3CC[C@@H](C)[C@@](O)(O3)C(=O)C(=O)N3CCCC[C@H]3C(=O)O2)CC[C@H]1O , please.
1.56

# context switch: different compound, same MIC
For CO[C@@H]1C[C@H](C[C@@H](C)[C@@H]2CC(=O)[C@H](C)/C=C(\C)[C@@H](O)[C@@H](OC)C(=O)[C@H](C)C[C@H](C)/C=C/C=C/C=C(\C)[C@H](N(O)C(=O)N3CCCCC3)C[C@@H]3CC[C@@H](C)[C@@](O)(O3)C(=O)C(=O)N3CCCC[C@H]3C(=O)O2)CC[C@H]1O , what is its reported MIC?
1.56

----------
System: Pichia kudriavzevii
Assay: In vitro antifungal activity against Candida krusei (CK 28838)
Format: functional
measured_quantity: MIC (µg/mL)
Answers are plain numbers, in µg/mL.

MIC for CO[C@H]1C[C@@H]2CC[C@@H](C)[C@@](O)(O2)C(=O)C(=O)N2CCCC[C@H]2C(=O)O[C@H]([C@H](C)C[C@@H]2CC[C@@H](OC(=O)N(C)C)[C@H](OC)C2)CC(=O)[C@H](C)/C=C(\C)[C@@H](O)[C@@H](OC)C(=O)[C@H](C)C[C@H](C)CCCC/C=C/1C ?
6.25

Query (compound): CO[C@@H]1C[C@H](C[C@@H](C)[C@@H]2CC(=O)[C@H](C)/C=C(\C)[C@@H](O)[C@@H](OC)C(=O)[C@H](C)C[C@H](C)/C=C/C=C/C=C(\C)[C@H](N(O)C(=O)Oc3ccccc3)C[C@@H]3CC[C@@H](C)[C@@](O)(O3)C(=O)C(=O)N3CCCC[C@H]3C(=O)O2)CC[C@H]1O ; field requested: MIC
0.78

Please find the next compound below.
# lookup: MIC of CO[C@@H]1C[C@H](C[C@@H](C)[C@@H]2CC(=O)[C@H](C)/C=C(\C)[C@@H](O)[C@@H](OC)C(=O)[C@H](C)C[C@H](C)/C=C/C=C/C=C(\C)[C@H](N(OC)C(=O)N(C)C)C[C@@H]3CC[C@@H](C)[C@@](O)(O3)C(=O)C(=O)N3CCCC[C@H]3C(=O)O2)CC[C@H]1O
1.56

----------
Tested on: Candida albicans
Assay: In vitro antifungal activity against […] (CA 34140); Not affected.
Type: functional
Kindly supply the reported MIC values for the records listed here.

Please tell me: MIC of CO[C@@H]1C[C@H](C[C@@H](C)[C@@H]2CC(=O)[C@H](C)/C=C(\C)[C@@H](O)[C@@H](OC)C(=O)[C@H](C)C[C@H](C)/C=C/C=C/C=C(\C)[C@@H](N(O)C(=O)N3CCOCC3)C[C@@H]3CC[C@@H](C)[C@@](O)(O3)C(=O)C(=O)N3CCCC[C@H]3C(=O)O2)CC[C@H]1O , system Candida albicans?
~100 µg/mL

Now for a further compound.
Tell me reported MIC for CO[C@@H]1C[C@H](C[C@@H](C)[C@@H]2CC(=O)[C@H](C)/C=C(\C)[C@@H](O)[C@@H](OC)C(=O)[C@H](C)C[C@H](C)/C=C/C=C/C=C(\C)[C@H](c3ccc(C)s3)C[C@@H]3CC[C@@H](C)[C@@](O)(O3)C(=O)C(=O)N3CCCC[C@H]3C(=O)O2)CC[C@H]1O , tested with Candida albicans.
~100 µg/mL
